- Test system: Acinetobacter baumannii
- Assay type: cell-based
Bridge positions count the residues as written; N and C are the ends. Square brackets hold non-standard residues; d marks the D form. Peptide text beside a SMILES is read from it. * marks the point of attachment. ξ: configuration not given here. Thr(3ξ) = CC(O)[C@H](N)C(=O)O; Dab = NCC[C@H](N)C(=O)O; X6 = CCCCCCC(CCN)C(=O)*
The entries below are paired with their reported MIC A. baumanii ATCC BAA-747.
// note: answer is a bare numeric in mg/L

Use these answered entries as a reference point.
CCCCC(CCN)C(=O)N[C@H](C(=O)N[C@@H](CN)C(=O)N[C@H]1CCNC(=O)[C@H]([C@@H](C)O)NC(=O)[C@H](CCN)NC(=O)[C@H](CCN)NC(=O)[C@H](CC(C)C)NC(=O)[C@@H](CC2CCCCC2)NC(=O)[C@H](CCN)NC1=O)[C@@H](C)O (single isomer, unassigned; isomer 2) [Example 41] | 0.06
CC(C)C[C@@H]1NC(=O)[C@@H](CC2CCCCC2)NC(=O)[C@H](CCN)NC(=O)[C@@H](NC(=O)[C@H](CN)NC(=O)[C@@H](NC(=O)CC(CN)c2ccc(Cl)cc2)C(C)O)CCNC(=O)[C@H]([C@@H](C)O)NC(=O)[C@H](CCN)NC(=O)[C@H](CCN)NC1=O (single isomer, unassigned; isomer 1) [Example 50] | 0.125
CCCCCC/C=C/c1ccc(C[C@H]2NC(=O)[C@H](CCN)NC(=O)[C@@H](NC(=O)[C@H](CN)NC(=O)[C@@H](NC(=O)C3CNCC(CC(C)C)C3)C(C)O)CCNC(=O)[C@H]([C@@H](C)O)NC(=O)[C@H](CCN)NC(=O)[C@H](CCN)NC(=O)[C@H](CC(C)C)NC2=O)cc1 (single isomer, unassigned; isomer 2) [Example 18] | 2

Bench note: what MIC A. baumanii ATCC BAA-747 did CC(C)CCC(CCN)C(=O)N[C@H](C(=O)N[C@@H](CN)C(=O)N[C@H]1CCNC(=O)[C@H]([C@@H](C)O)NC(=O)[C@H](CCN)NC(=O)[C@H](CCN)NC(=O)[C@H](CC(C)C)NC(=O)[C@@H](CC2CCCCC2)NC(=O)[C@H](CCN)NC1=O)[C@@H](C)O (single isomer, unassigned; isomer 2) [Example 80] show? 0.125

Same question, CCCCCCC(CCN)C(=O)N[C@H](C(=O)N[C@@H](CCN)C(=O)N[C@H]1CCNC(=O)[C@H]([C@@H](C)O)NC(=O)[C@H](CCN)NC(=O)[C@H](CCN)NC(=O)[C@H](CC(C)C)NC(=O)[C@@H](Cc2ccccc2)NC(=O)[C@H](CCN)NC1=O)C(C)O (stereo partly drawn) [Example C5, reference compound] (X6-[Thr(3ξ)][Dab][Dab][Dab][dF]L[Dab][Dab]T; lactam 3-C) this time 0.125

Same question, CC(C)CC1CNCC(C(=O)N[C@H](C(=O)N[C@@H](CN)C(=O)N[C@H]2CCNC(=O)[C@H]([C@@H](C)O)NC(=O)[C@H](CCN)NC(=O)[C@H](CCN)NC(=O)[C@H](CC(C)C)NC(=O)[C@@H](Cc3ccc(-c4ccccc4)cc3)NC(=O)[C@H](CCN)NC2=O)C(C)O)C1 (single isomer, unassigned; isomer 1) [Example 3] this time 2
